# measurement description: Ratio of extracellular fluid of brain AUC to plasma AUC in Sprague-Dawley rat at 600 mg/kg, iv
# Type: ADME, organism-based
# Set-up: dose 600 mg/kg, route intravenous
# setup conditions: read-out: Ratio AUC
metric name: Kp
Keep it simple and answer with nothing but the number.

Can you look up the measured Kp of O=C([O-])CCCO.[Na+] [SODIUM OXYBATE] for me?
0.07

----------
# measurement description: Cmax in Sprague-Dawley rat extracellular fluid of brain at 800 mg/kg, iv
# Assay type: ADME, organism-based
# Set-up: dose 800 mg/kg, route intravenous
# setup conditions: in vivo
metric name: Cmax (µM)
# unit: µM | format: bare number

Can you look up the measured Cmax of O=C([O-])CCCO.[Na+] [SODIUM OXYBATE] for me?
660
